B1: C1orf137 (parent)
chain: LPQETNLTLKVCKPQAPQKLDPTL

- Variants of: B1
- test: protein stability index of a GFP-peptide fusion (GPS, HEK-293T) (PSI 1-6); higher = more stable;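 further: lentivirally expressed fusions sorted by FACS into six bins by GFP to DsRed ratio, PSI derived from sequencing read proportions per bin multiplied by bin number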
- reported.conditions: c terminus: a fixed tail appended
Would you mind telling me the reported protein stability index of each entry?
One number for each entry.

Take each entry in turn and give its protein stability index.
1. C12Y
2. A16P
3. T23S
4. Q3M
5. Q3D
6. K19L

Out:
[3.64, 3.62, 3.85, 3.6, 4.33, 3.01]
